Test system: downy bromegrass (Bromus tectorum)
Method description: Test B pre-/postemergence plant response
Format: in vivo
Setup conditions: Preemergence; 8 g ai/ha; scale 0 to 100
Reported endpoint: Bromegrass, Downy plant response rating

Task: Value lookup for Bromegrass, Downy plant response rating; key = CCc1cc(-c2ccc(Br)cc2)nn1-c1c(O)c(C)nn(C)c1=O [Compound 74]
Output: 30

Task: Reported Bromegrass, Downy plant response rating, compound CCc1cc(-c2ccc(C(F)(F)F)cc2)nn1-c1c(O)c(OC)nn(C)c1=O [Compound 66] : ____
Output: 85

Task: Fill blank: measured Bromegrass, Downy plant response rating of the compound Cc1cc(-c2ccc(Cl)cc2)nn1-c1c(OC(=O)c2ccccc2Cl)cnn(C)c1=O [Compound 38] is ____.
Output: 55

Task: Name the reported Bromegrass, Downy plant response rating value associated with the compound Cc1cc(-c2ccc(Cl)cc2)nn1-c1c(OS(=O)(=O)c2ccccc2)cnn(C)c1=O [Compound 35]
Output: 40

###

Tested on: surinam grass (Brachiaria decumbens)
Method description: Test B pre-/postemergence plant response
Type: in vivo
Setup conditions: Postemergence, 31 g ai/ha; scale 0 to 100
Reported endpoint: Plant response rating, Surinam Grass
// no unit, no text: just the number

Task: GET /values?readout=Plant response rating, Surinam Grass&item= COc1nn(C)c(=O)c(-n2nc(-c3ccc(Br)cc3)cc2C)c1O
Output: 100

Task: Returns the measured Plant response rating, Surinam Grass for the input compound. Input: CCOC(=O)Oc1cnn(C)c(=O)c1-n1nc(-c2ccc(Cl)cc2)cc1C
Output: 100

Task: Which Plant response rating, Surinam Grass reading was recorded for the compound CCc1cc(-c2ccc(C(F)(F)F)cc2)nn1-c1c(O)c(OC)nn(C)c1=O ?
Output: 100

Task: # input compound: Cc1cc(-c2ccc(Cl)cc2)nn1-c1c(OC(=O)c2cccs2)cnn(C)c1=O ; wanted: its Plant response rating, Surinam Grass
Output: 100

Task: Request the reported Plant response rating, Surinam Grass associated with Cc1nn(C)c(=O)c(-n2nc(-c3ccc(Cl)cc3)cc2Cl)c1O
Output: 90

Task: State the recorded Plant response rating, Surinam Grass for this entry: CCCc1cc(-c2ccc(Cl)cc2)nn1-c1c(O)cnn(C)c1=O
Output: 100

Task: Plant response rating, Surinam Grass for CCc1c(C)c(-c2ccc(Br)cc2)nn1-c1c(O)cnn(C)c1=O ?
Output: 100

Task: What measured Plant response rating, Surinam Grass goes with Cc1cc(-c2ccc(Cl)cc2)nn1-c1c(OC(=O)Oc2ccccc2)cnn(C)c1=O ?
Output: 98

Task: Form field: reported Plant response rating, Surinam Grass of Cn1ncc(O)c(-n2nc(-c3ccc(Cl)cc3)cc2C2CC2)c1=O
Output: 98

###

System: rice (Oryza sativa)
Method description: Test B flooded paddy test plant response
Assay type: in vivo
Setup conditions: Flood (flooded paddy test), 62 g ai/ha; scale 0 to 100, 0 no effect, 100 complete control
Provide the reported Plant response rating, Rice of each item.
Lab note: record just the number, no unit beside it.

Task: Query: Plant response rating, Rice; subject: Cc1cc(-c2ccc(OC(F)(F)F)cc2)nn1-c1c(O)cnn(C)c1=O
Output: 0

Task: Request the reported Plant response rating, Rice associated with Cc1cc(-c2ccc(C(F)(F)F)cc2)nn1-c1c(O)c(C(C)C)nn(C)c1=O
Output: 0

Task: Looking for the measured Plant response rating, Rice of Cc1nn(C)c(=O)c(-n2nc(-c3ccc(Cl)cc3)cc2Cl)c1O , can you help?
Output: 10

Task: Look at this molecule and give its reported Plant response rating, Rice. CCc1cc(-c2ccc(C(F)(F)F)cc2)nn1-c1c(OC(=O)OC(C)C)cnn(C)c1=O
Output: 20

Task: Plant response rating, Rice for CCc1cc(-c2ccc(Cl)cc2)nn1-c1c(O)cnn(C)c1=O ?
Output: 0

Task: # input molecule: Cc1cc(-c2ccc(C(F)(F)F)c(F)c2)nn1-c1c(O)c(C(F)(F)F)nn(C)c1=O ; wanted: its Plant response rating, Rice
Output: 15

Task: // lookup Plant response rating, Rice for Cc1cc(-c2ccc(Cl)cc2)nn1-c1c(OS(=O)(=O)c2ccc(Cl)s2)cnn(C)c1=O
Output: 0

Task: Return reported Plant response rating, Rice; argument: CCCC(=O)Oc1cnn(C)c(=O)c1-n1nc(-c2ccc(Cl)cc2)cc1C
Output: 0
